Just for reference, PubChem BioAssay (NCI) is where these values come from.

- Test system: CCRF-CEM leukemia
- test-protocol: NCI-60 one-dose screen, 48 h
- particulars: 10 µM
The panel holds about 83,000 compounds, 20% with a hit somewhere; the sample as a whole holds those more often. The source made the active and inactive calls. Rule for the calls: active = growth percent below 10; inactive = the rest.
Permitted responses: active, inactive

# count of solved cases: 10
{"columns": ["compound", "group-label"],
 "data": [
  ["O=C(NO)c1ccc(Cn2ccc3c(Nc4ccccc4)ncnc32)cc1", "inactive"],
  ["CCOC(=O)C(Cc1ccccc1)N1C(=O)/C(=C/N2N=C(c3ccc(OC)cc3)CC2c2ccc3ccccc3c2)SC1=S (stereo not given)", "active"],
  ["CC(=O)Nc1ccc(-n2cnc3cc(-c4ccc(NS(C)(=O)=O)cc4)ccc32)cc1", "inactive"],
  ["CCCCCc1ccc(S(=O)(=O)N(C(C)=O)c2cc(-c3csc(N(C)C(C)=O)n3)ccc2N2CCN(C)CC2)cc1", "active"],
  ["Cc1ccc(-c2nc3ccc(C(=O)N=Nc4c(O)[nH]c5ccc([N+](=O)[O-])cc45)cc3[nH]2)cc1", "inactive"],
  ["O=C(Cc1ccc2c(c1)CN(C1CCC(=O)NC1=O)C2=O)NCc1cccc2ccccc12 (stereo not given)", "active"],
  ["COc1ccc2[nH]c(O)c(N=NC(=O)c3cc(-c4ccc(C)cc4)nc4ccccc34)c2c1", "inactive"],
  ["Cc1ccc(F)cc1N/C=c1\\s/c(=C(\\C#N)C(=O)Nc2ccccc2)n(-c2ccccc2)c1=O", "inactive"],
  ["O=C(CSc1nnc(-c2ccc3nc(-c4ccc(Cl)cc4)[nH]c3c2)o1)Nc1ccc(Cl)cc1", "active"],
  ["O=C(c1ccc([N+](=O)[O-])c([N+](=O)[O-])c1O)n1[nH]c(=O)c2ccccc2c1=O", "inactive"]
]}

Asked: Just curious, what result did "COc1nccnc1NS(=O)(=O)c1ccc(NC2=C(Cl)C(=O)c3nc(C)ccc3C2=O)cc1" get here?
Given back: inactive

Asked: Just curious, what result did "COc1cccc(/C=C2\N=C(C)N(CCc3ccc(S(N)(=O)=O)cc3)C2=O)c1" get here?
Given back: inactive

Asked: Just curious, what result did "COC[C@@H](CC(C)C)N=C1N/C(=C\c2ccc3ncsc3c2)C(=O)N1C" get here?
Given back: active

Asked: Just curious, what result did "O=c1[nH]c2ccc(Cl)cc2cc1CSc1ccc(Nc2nccc(-c3ccc(Cl)cc3)n2)cc1" get here?
Given back: inactive

Asked: Just curious, what result did "Cc1ccc(-c2cc(C(=O)N=Nc3c(O)[nH]c4ccc(Br)cc34)c3ccccc3n2)cc1" get here?
Given back: inactive

Asked: Just curious, what result did "O=c1[nH]c2ccccc2cc1CSc1ccc(Nc2nccc(-c3ccc(Cl)cc3)n2)cc1" get here?
Given back: inactive

Asked: Just curious, what result did "OCCNc1oc(-c2ccccc2)nc1[P+](c1ccccc1)(c1ccccc1)c1ccccc1" get here?
Given back: active
